Each entry below carries its recorded IC50.
biological target: α1G T-type Ca^2+ channel (Homo sapiens); experiment: T-type Ca2+ channel blocking activity in HEK293 cells, whole-cell patch clamp; details: HEK293 cells expressing α1G; whole-cell patch clamp, -100 mV to -30 mV
Sequence (O43497 whole entry): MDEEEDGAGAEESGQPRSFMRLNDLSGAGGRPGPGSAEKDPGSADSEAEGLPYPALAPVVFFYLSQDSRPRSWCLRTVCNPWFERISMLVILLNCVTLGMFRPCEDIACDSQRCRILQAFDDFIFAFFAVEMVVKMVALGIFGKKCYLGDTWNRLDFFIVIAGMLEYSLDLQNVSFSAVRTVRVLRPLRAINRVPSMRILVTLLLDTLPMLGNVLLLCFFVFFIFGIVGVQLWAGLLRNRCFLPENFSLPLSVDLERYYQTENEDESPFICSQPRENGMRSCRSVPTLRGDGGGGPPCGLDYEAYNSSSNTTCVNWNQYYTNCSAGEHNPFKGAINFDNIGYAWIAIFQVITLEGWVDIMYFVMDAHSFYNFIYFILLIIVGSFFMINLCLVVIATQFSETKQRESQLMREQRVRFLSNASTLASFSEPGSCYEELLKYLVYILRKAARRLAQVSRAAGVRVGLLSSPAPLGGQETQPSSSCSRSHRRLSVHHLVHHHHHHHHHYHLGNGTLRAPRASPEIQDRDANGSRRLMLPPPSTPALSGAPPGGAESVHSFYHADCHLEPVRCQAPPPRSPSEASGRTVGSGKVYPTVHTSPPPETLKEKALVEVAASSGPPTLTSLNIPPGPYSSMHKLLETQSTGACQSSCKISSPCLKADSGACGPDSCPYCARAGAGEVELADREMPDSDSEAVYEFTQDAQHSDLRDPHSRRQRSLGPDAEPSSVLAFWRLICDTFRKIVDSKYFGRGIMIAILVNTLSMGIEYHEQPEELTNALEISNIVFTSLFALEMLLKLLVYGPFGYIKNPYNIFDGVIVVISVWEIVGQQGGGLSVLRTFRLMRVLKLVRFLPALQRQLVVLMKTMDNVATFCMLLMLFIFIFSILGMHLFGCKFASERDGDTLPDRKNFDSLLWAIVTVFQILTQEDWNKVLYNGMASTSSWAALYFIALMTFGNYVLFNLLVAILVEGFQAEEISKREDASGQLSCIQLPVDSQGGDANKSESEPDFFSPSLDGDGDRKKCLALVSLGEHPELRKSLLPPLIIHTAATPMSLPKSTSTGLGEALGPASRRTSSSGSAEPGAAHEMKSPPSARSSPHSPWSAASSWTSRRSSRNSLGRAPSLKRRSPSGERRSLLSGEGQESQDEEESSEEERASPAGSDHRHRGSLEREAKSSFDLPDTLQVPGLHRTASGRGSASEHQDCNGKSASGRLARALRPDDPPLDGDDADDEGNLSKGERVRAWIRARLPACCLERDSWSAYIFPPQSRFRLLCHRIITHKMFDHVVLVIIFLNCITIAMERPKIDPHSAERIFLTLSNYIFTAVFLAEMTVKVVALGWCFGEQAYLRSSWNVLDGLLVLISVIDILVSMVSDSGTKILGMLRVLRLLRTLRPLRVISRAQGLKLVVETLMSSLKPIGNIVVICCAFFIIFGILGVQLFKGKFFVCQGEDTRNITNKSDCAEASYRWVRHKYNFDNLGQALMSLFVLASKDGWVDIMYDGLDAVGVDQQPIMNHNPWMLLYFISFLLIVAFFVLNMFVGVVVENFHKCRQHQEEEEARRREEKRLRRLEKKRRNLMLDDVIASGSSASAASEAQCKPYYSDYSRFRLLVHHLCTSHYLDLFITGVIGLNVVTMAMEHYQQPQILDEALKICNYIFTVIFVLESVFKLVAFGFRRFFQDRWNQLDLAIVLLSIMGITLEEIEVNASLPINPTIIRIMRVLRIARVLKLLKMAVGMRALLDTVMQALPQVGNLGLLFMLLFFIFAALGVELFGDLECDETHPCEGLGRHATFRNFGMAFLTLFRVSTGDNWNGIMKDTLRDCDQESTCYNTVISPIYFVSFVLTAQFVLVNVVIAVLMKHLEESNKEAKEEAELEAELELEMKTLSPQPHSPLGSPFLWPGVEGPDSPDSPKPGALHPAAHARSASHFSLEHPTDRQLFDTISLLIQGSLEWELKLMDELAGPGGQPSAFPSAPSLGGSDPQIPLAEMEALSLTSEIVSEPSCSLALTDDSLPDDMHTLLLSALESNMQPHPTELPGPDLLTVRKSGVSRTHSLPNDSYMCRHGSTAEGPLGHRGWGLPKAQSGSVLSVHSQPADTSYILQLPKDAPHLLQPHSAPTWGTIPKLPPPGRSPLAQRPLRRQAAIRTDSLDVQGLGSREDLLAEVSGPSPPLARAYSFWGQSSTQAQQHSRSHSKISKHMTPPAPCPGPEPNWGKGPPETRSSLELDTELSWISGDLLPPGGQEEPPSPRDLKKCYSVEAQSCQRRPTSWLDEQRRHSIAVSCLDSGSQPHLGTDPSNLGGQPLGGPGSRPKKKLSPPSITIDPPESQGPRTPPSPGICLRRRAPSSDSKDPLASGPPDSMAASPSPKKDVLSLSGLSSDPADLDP
// return numeric value only (unit: µM, not printed)

# molecule, outcome.measure, result
rows = [
    ("CCCc1cc(CNCCN2CCN(C(c3ccccc3)c3ccc(Cl)cc3)CC2)nn1-c1ccccc1 (stereo not shown)", "IC50", 0.65),
    ("COc1ccc(N2CCN(CCNCc3cc(C)n(-c4ccccc4)n3)CC2)cc1", "IC50", 9.41),
    ("Cc1cc(CNCCN2CCN(C(c3ccccc3)c3ccccc3)CC2)nn1-c1ccccc1", "IC50", 0.57),
    ("CCCc1cc(CNCCN2CCN(C(c3ccccc3)c3ccccc3)CC2)nn1-c1ccccc1", "IC50", 0.3),
    ("CC(C)Cc1cc(CNCCN2CCN(c3ccc([N+](=O)[O-])cc3)CC2)nn1C(C)(C)C", "IC50", 1.77),
    ("CC(C)Cc1cc(CNCCN2CCN(c3ccccc3)CC2)nn1-c1ccccc1", "IC50", 0.82),
    ("COc1ccc(N2CCN(CCNCc3cc(CC(C)C)n(-c4ccccc4)n3)CC2)cc1", "IC50", 1.04),
    ("CCCc1cc(CNCCN2CCN(c3ccccc3F)CC2)nn1-c1ccccc1", "IC50", 0.66),
]

**Query** Value lookup for IC50; key = "CC(C)Cc1cc(CNCCN2CCN(C(c3ccccc3)c3ccccc3)CC2)nn1C(C)(C)C"
**Result** 2.19

**Query** Look at this molecule and give its reported IC50. Cc1cc(CNCCN2CCN(C(c3ccccc3)c3ccc(Cl)cc3)CC2)nn1-c1ccccc1 (stereo not shown)
**Result** 0.33

**Query** Request the reported IC50 associated with "CCCc1cc(CNCCN2CCN(c3cccc(Cl)c3)CC2)nn1-c1ccccc1"
**Result** 0.9

**Query** # query: IC50 of entry "CC(C)Cc1cc(CNCCN2CCN(c3ccc([N+](=O)[O-])cc3)CC2)nn1-c1ccccc1"
**Result** 1.06

**Query** Please look up its IC50: "CCCc1cc(CNCCN2CCN(c3ccccc3)CC2)nn1-c1ccccc1"
**Result** 0.3
